# reported conditions: in ethyl acetate, 318.15 K
property label: solubility (mole fraction)
Returns: the value as a bare number; no unit string appended.

Query (compound): Cc1c(OCC(F)(F)F)ccnc1CS(=O)c1nc2ccccc2[nH]1 (stereo unspecified) ; field requested: solubility (mole fraction)
0.0216

* * *

# reported conditions: in acetone, 278.15 K
property label: solubility (mole fraction)
Answer with a bare number; do not write a unit.

Which value of solubility (mole fraction) has been reported for Cc1c(OCC(F)(F)F)ccnc1CS(=O)c1nc2ccccc2[nH]1 (stereo unspecified) in the records?
0.0174

* * *

# reported conditions: in ethanol, 298.15 K
property label: solubility (mole fraction)
Just the number, please, no unit attached.

Please report the recorded solubility (mole fraction) for Cc1c(OCC(F)(F)F)ccnc1CS(=O)c1nc2ccccc2[nH]1 (stereo unspecified) .
0.0221
